Here, each record is paired with measured Δω●τM (exchange limit regime) data.
- protocol-description: Bound water lifetime τM^298 of Ln(1)^3+ complexes by fitting temperature dependent 17O NMR bound water line widths; exchange limit regime Δω•τM calculated
- Format: physicochemical
- test-context: 11.75 T
Answer with a number only.

>>> df
                        structure_as_smiles                  quantity_kind  recorded_measurement
0  CCOC(=O)CNC(=O)CN1CCN(CC(=O)NCC(=O)OCC)CCN(CC(=O)NCC(=O)OCC)CCN(CC(=O)NCC(=O)OCC)CC1.[Er+3]  Δω●τM (exchange limit regime)                   5.7
1  CCOC(=O)CNC(=O)CN1CCN(CC(=O)NCC(=O)OCC)CCN(CC(=O)NCC(=O)OCC)CCN(CC(=O)NCC(=O)OCC)CC1.[Tb+3]  Δω●τM (exchange limit regime)                  58.5
2  CCOC(=O)CNC(=O)CN1CCN(CC(=O)NCC(=O)OCC)CCN(CC(=O)NCC(=O)OCC)CCN(CC(=O)NCC(=O)OCC)CC1.[Eu+3]  Δω●τM (exchange limit regime)                  60.0

// sample `CCOC(=O)CNC(=O)CN1CCN(CC(=O)NCC(=O)OCC)CCN(CC(=O)NCC(=O)OCC)CCN(CC(=O)NCC(=O)OCC)CC1.[Pr+3]` , its Δω●τM (exchange limit regime) was 3.8

// sample `CCOC(=O)CNC(=O)CN1CCN(CC(=O)NCC(=O)OCC)CCN(CC(=O)NCC(=O)OCC)CCN(CC(=O)NCC(=O)OCC)CC1.[Tm+3]` , its Δω●τM (exchange limit regime) was 4.7

// sample `CCOC(=O)CNC(=O)CN1CCN(CC(=O)NCC(=O)OCC)CCN(CC(=O)NCC(=O)OCC)CCN(CC(=O)NCC(=O)OCC)CC1.[Ho+3]` , its Δω●τM (exchange limit regime) was 21.5

// sample `CCOC(=O)CNC(=O)CN1CCN(CC(=O)NCC(=O)OCC)CCN(CC(=O)NCC(=O)OCC)CCN(CC(=O)NCC(=O)OCC)CC1.[Nd+3]` , its Δω●τM (exchange limit regime) was 8.0

// sample `CCOC(=O)CNC(=O)CN1CCN(CC(=O)NCC(=O)OCC)CCN(CC(=O)NCC(=O)OCC)CCN(CC(=O)NCC(=O)OCC)CC1.[Dy+3]` , its Δω●τM (exchange limit regime) was 38.5

// sample `CCOC(=O)CNC(=O)CN1CCN(CC(=O)NCC(=O)OCC)CCN(CC(=O)NCC(=O)OCC)CCN(CC(=O)NCC(=O)OCC)CC1.[Sm+3]` , its Δω●τM (exchange limit regime) was 4.0

// sample `CCOC(=O)CNC(=O)CN1CCN(CC(=O)NCC(=O)OCC)CCN(CC(=O)NCC(=O)OCC)CCN(CC(=O)NCC(=O)OCC)CC1.[Yb+3]` , its Δω●τM (exchange limit regime) was 1.9
